Experiment: Plasma pharmacokinetics of lorlatinib at steady state (LC-MS/MS, non-compartmental analysis)
Assay type: in vivo, human
Conditions: human, plasma, oral, 95 mg/m2, Cycle 1 Day 15, Cohort B2, 95 mg/m2 per dose; read-out: Cmax

- MOLECULE SMILES: "C[C@H]1Oc2cc(cnc2N)-c2c(nn(C)c2C#N)CN(C)C(=O)c2ccc(F)cc21"
  READING UNIT: "ng/mL"
  Cmax: 926

* * *

Test: Plasma pharmacokinetics of lorlatinib at steady state (LC-MS/MS, non-compartmental analysis)
Type: in vivo, human
Conditions: human, plasma, oral, 95 mg/m2, Cycle 1 Day 15, Cohort B2, 95 mg/m2 per dose; read-out: MRTINF_obs

- MOLECULE SMILES: "C[C@H]1Oc2cc(cnc2N)-c2c(nn(C)c2C#N)CN(C)C(=O)c2ccc(F)cc21"
  READING UNIT: "h"
  MRT inf: 7.79

* * *

Test: Plasma pharmacokinetics of lorlatinib at steady state (LC-MS/MS, non-compartmental analysis)
Format: in vivo, human
Settings: human, in vivo, 150 mg per dose, Cycle 1 Day 15, Cohort A2, 150 mg per dose; read-out: AUCall
MEASURED ENDPOINT: AUC (ng·h/mL)

- MOLECULE SMILES: "C[C@H]1Oc2cc(cnc2N)-c2c(nn(C)c2C#N)CN(C)C(=O)c2ccc(F)cc21"
  RECORDED NUMBER: 8300

* * *

Experiment: Plasma pharmacokinetics of lorlatinib at steady state (LC-MS/MS, non-compartmental analysis)
Type: in vivo, human
Conditions: human, plasma, oral, 95 mg/m2, Cohort A1, 95 mg/m2 per dose, C1D15, Geometric Mean, N 9; read-out: Cmax
MEASURED ENDPOINT: Cmax (ng/mL)

- MOLECULE SMILES: "C[C@H]1Oc2cc(cnc2N)-c2c(nn(C)c2C#N)CN(C)C(=O)c2ccc(F)cc21"
  RECORDED NUMBER: 1020

* * *

Test: Plasma pharmacokinetics of lorlatinib at steady state (LC-MS/MS, non-compartmental analysis)
Format: in vivo, human
Conditions: human, plasma, oral, 60 mg/m2, Cohort A1, 60 mg/m2 per dose, C1D15, Median, N 3; read-out: Cmax
MEASURED ENDPOINT: Cmax (ng/mL)

- MOLECULE SMILES: "C[C@H]1Oc2cc(cnc2N)-c2c(nn(C)c2C#N)CN(C)C(=O)c2ccc(F)cc21"
  MEASURED ENDPOINT: "Cmax"
  READING UNIT: "ng/mL"
  RECORDED NUMBER: 558

* * *

Test: Plasma pharmacokinetics of lorlatinib at steady state (LC-MS/MS, non-compartmental analysis)
Format: in vivo, human
Settings: human, plasma, oral, 95 mg/m2, Cohort B2, 95 mg/m2 per dose, C1D15, Median, N 2; read-out: Tmax

- MOLECULE SMILES: "C[C@H]1Oc2cc(cnc2N)-c2c(nn(C)c2C#N)CN(C)C(=O)c2ccc(F)cc21"
  Tmax / h: 3

* * *

Experiment: Plasma pharmacokinetics of lorlatinib at steady state (LC-MS/MS, non-compartmental analysis)
Type: in vivo, human
Details: human, in vivo, 115 mg/m2, Cohort A1, 115 mg/m2 per dose, C1D15, Geometric Mean, N 6; read-out: Tmax

- MOLECULE SMILES: "C[C@H]1Oc2cc(cnc2N)-c2c(nn(C)c2C#N)CN(C)C(=O)c2ccc(F)cc21"
  READING UNIT: "h"
  Tmax: 1.59

* * *

Test: Plasma pharmacokinetics of lorlatinib at steady state (LC-MS/MS, non-compartmental analysis)
Assay type: in vivo, human
Conditions: human, plasma, oral, 75 mg/m2, Cohort A1, 75 mg/m2 per dose, C1D15, individual patient; read-out: Cmax

- MOLECULE SMILES: "C[C@H]1Oc2cc(cnc2N)-c2c(nn(C)c2C#N)CN(C)C(=O)c2ccc(F)cc21"
  Cmax: "659 ng/mL"

* * *

Assay: Plasma pharmacokinetics of lorlatinib at steady state (LC-MS/MS, non-compartmental analysis)
Assay type: in vivo, human
Conditions: human, in vivo, 115 mg/m2, steady state; Cohort A1; 115 mg/m^2 QD; (CV); read-out: AUCtau
MEASURED ENDPOINT: AUC (ng·h/mL)

- MOLECULE SMILES: "C[C@H]1Oc2cc(cnc2N)-c2c(nn(C)c2C#N)CN(C)C(=O)c2ccc(F)cc21"
  MEASURED ENDPOINT: "AUC"
  READING UNIT: "ng·h/mL"
  RECORDED NUMBER: 8640

* * *

Assay: Plasma pharmacokinetics of lorlatinib at steady state (LC-MS/MS, non-compartmental analysis)
Assay type: in vivo, human
Settings: human, plasma, oral, 95 mg/m2, steady state; Cohort B2 (with topotecan/cyclophosphamide); 95 mg/m^2 QD; individual values; read-out: Tmax

- MOLECULE: "C[C@H]1Oc2cc(cnc2N)-c2c(nn(C)c2C#N)CN(C)C(=O)c2ccc(F)cc21 [Lorlatinib]"
  Tmax [h]: 4

* * *

Assay: Plasma pharmacokinetics of lorlatinib at steady state (LC-MS/MS, non-compartmental analysis)
Assay type: in vivo, human
Settings: human, plasma, oral, 75 mg/m2, steady state; Cohort A1; 75 mg/m^2 QD; (CV); read-out: AUCtau

- MOLECULE SMILES: "C[C@H]1Oc2cc(cnc2N)-c2c(nn(C)c2C#N)CN(C)C(=O)c2ccc(F)cc21"
  AUC: "4160 ng·h/mL"

* * *

Assay: Plasma pharmacokinetics of lorlatinib at steady state (LC-MS/MS, non-compartmental analysis)
Assay type: in vivo, human
Settings: human, plasma, oral, 60 mg/m2, steady state; Cohort A1; 60 mg/m^2 QD; (CV); read-out: Cmax

- MOLECULE SMILES: "C[C@H]1Oc2cc(cnc2N)-c2c(nn(C)c2C#N)CN(C)C(=O)c2ccc(F)cc21"
  Cmax (ng/mL): 492

* * *

Assay: Plasma pharmacokinetics of lorlatinib at steady state (LC-MS/MS, non-compartmental analysis)
Type: in vivo, human
Conditions: human, plasma, oral, 60 mg/m2, Cycle 1 Day 15; Cohort A1; 60 mg/m2 per dose; individual patients; read-out: MRTINF_pred
MEASURED ENDPOINT: MRT inf (h)

- MOLECULE: "C[C@H]1Oc2cc(cnc2N)-c2c(nn(C)c2C#N)CN(C)C(=O)c2ccc(F)cc21 [Lorlatinib]"
  READING UNIT: "h"
  RECORDED NUMBER: 12.9

* * *

Assay: Plasma pharmacokinetics of lorlatinib at steady state (LC-MS/MS, non-compartmental analysis)
Assay type: in vivo, human
Details: human, plasma, oral, 60 mg/m2, Cycle 1 Day 15; Cohort A1; 60 mg/m2 per dose; individual patients; read-out: AUCall
MEASURED ENDPOINT: AUC (ng·h/mL)

- MOLECULE SMILES: "C[C@H]1Oc2cc(cnc2N)-c2c(nn(C)c2C#N)CN(C)C(=O)c2ccc(F)cc21"
  RECORDED NUMBER: 4140

* * *

Assay: Plasma pharmacokinetics of lorlatinib at steady state (LC-MS/MS, non-compartmental analysis)
Type: in vivo, human
Conditions: human, plasma, oral, 95 mg/m2, Cohort A1, 95 mg/m2 per dose, C1D15, Median, N 9; read-out: Tmax
MEASURED ENDPOINT: Tmax

- MOLECULE SMILES: "C[C@H]1Oc2cc(cnc2N)-c2c(nn(C)c2C#N)CN(C)C(=O)c2ccc(F)cc21"
  MEASURED ENDPOINT: "Tmax"
  RESULT: "1 h"

* * *

Experiment: Plasma pharmacokinetics of lorlatinib at steady state (LC-MS/MS, non-compartmental analysis)
Assay type: in vivo, human
Settings: human, plasma, oral, 75 mg/m2, Cycle 1 Day 1; Cohort A1; 75 mg/m2 per dose; individual patients; read-out: Cmax

- MOLECULE SMILES: "C[C@H]1Oc2cc(cnc2N)-c2c(nn(C)c2C#N)CN(C)C(=O)c2ccc(F)cc21"
  Cmax: "961 ng/mL"

* * *

Assay: Plasma pharmacokinetics of lorlatinib at steady state (LC-MS/MS, non-compartmental analysis)
Format: in vivo, human
Conditions: Cycle 1 Day 1, Cohort B2, 115 mg/m2 per dose; unit assumed
MEASURED ENDPOINT: Tlag

- MOLECULE SMILES: "C[C@H]1Oc2cc(cnc2N)-c2c(nn(C)c2C#N)CN(C)C(=O)c2ccc(F)cc21"
  MEASURED ENDPOINT: "Tlag"
  RESULT: "0 h"

* * *

Assay: Plasma pharmacokinetics of lorlatinib at steady state (LC-MS/MS, non-compartmental analysis)
Format: in vivo, human
Conditions: human, plasma, oral, 150 mg, Cohort A2, 150 mg per dose, C1D15, individual patient; read-out: AUC_TAU

- MOLECULE SMILES: "C[C@H]1Oc2cc(cnc2N)-c2c(nn(C)c2C#N)CN(C)C(=O)c2ccc(F)cc21"
  AUC / ng·h/mL: 5920

* * *

Assay: Plasma pharmacokinetics of lorlatinib at steady state (LC-MS/MS, non-compartmental analysis)
Format: in vivo, human
Details: Cycle 1 Day 1; Cohort A2; 150 mg per dose; individual patients
MEASURED ENDPOINT: Tlast (h)

- MOLECULE SMILES: "C[C@H]1Oc2cc(cnc2N)-c2c(nn(C)c2C#N)CN(C)C(=O)c2ccc(F)cc21"
  MEASURED ENDPOINT: "Tlast"
  RECORDED NUMBER: 24
